- Method notes: Solubility in FeSSIF at pH 5
- Type: physicochemical
Documented solubility across a set of compounds

>>> result("COC(=O)N[C@H](C(=O)N1CCC[C@H]1c1nc2cc(F)c([C@H]3CC[C@H](c4cc5c(cc4F)nc([C@@H]4CCCN4C(=O)[C@@H](NC(=O)OC)[C@@H](C)OC)n5COC(=O)CCCOP(=O)(O)O)N3c3cc(F)c(N4CCC(c5ccc(F)cc5)CC4)c(F)c3)cc2[nH]1)[C@@H](C)OC")
"> 1000 µg/mL"

// sample "COC(=O)N[C@H](C(=O)N1CCC[C@H]1c1nc2cc(F)c([C@H]3CC[C@H](c4cc5c(cc4F)nc([C@@H]4CCCN4C(=O)[C@@H](NC(=O)OC)[C@@H](C)OC)n5COC(=O)N(C)c4ncccc4COP(=O)(O)O)N3c3cc(F)c(N4CCC(c5ccc(F)cc5)CC4)c(F)c3)cc2[nH]1)[C@@H](C)OC" , its solubility was > 1000 µg/mL

# solubility of "COC(=O)N[C@H](C(=O)N1CCC[C@H]1c1nc2cc(F)c([C@H]3CC[C@H](c4cc5nc([C@@H]6CCCN6C(=O)[C@@H](NC(=O)OC)[C@@H](C)OC)n(COC(=O)c6cccc(OP(=O)(O)O)c6)c5cc4F)N3c3cc(F)c(N4CCC(c5ccc(F)cc5)CC4)c(F)c3)cc2[nH]1)[C@@H](C)OC" = > 1000 µg/mL

###

- Method notes: Lipophilicity, logD of compound
- Format: physicochemical
- Condition context: octanol/water
Entries and their logD

>>> result("CC(C)(C)[C@@H]1NC(=O)O[C@@H]2CCC[C@H]2OC/C=C/C(F)(F)c2nc3ccccc3nc2O[C@@H]2C[C@@H](C(=O)N[C@]3(C(=O)NS(=O)(=O)C4(C)CC4)C[C@H]3C(F)F)N(C2)C1=O")
2.5

Field logD (entry "COC(=O)N[C@H](C(=O)N1CCC[C@H]1c1nc2cc([C@H]3CC[C@H](c4cc5nc([C@@H]6CCCN6C(=O)[C@@H](NC(=O)OC)[C@@H](C)OC)[nH]c5cc4F)N3c3cc(F)c(N4CCC(c5ccc(F)cc5)CC4)c(F)c3)c(F)cc2[nH]1)[C@@H](C)OC" ) reads 5.7

###

The reader will find reported Cmax values listed item by item below.
- Method notes: Cmax in beagle dog assessed as pibrentasvir1 level at 40 mg, po measured up to 24 hrs
- Assay type: ADME, organism-based, Canis lupus familiaris
- Parameters: route oral, dose 40 mg, time <=24
- Condition context: in vivo
# number only, unit ng/mL dropped from output

Consider the reported Cmax for these compounds:
>>> numeric_readout("COC(=O)N[C@H](C(=O)N1CCC[C@H]1c1nc2cc([C@H]3CC[C@H](c4cc5nc([C@@H]6CCCN6C(=O)[C@@H](NC(=O)OC)[C@@H](C)OC)n(COP(=O)(O)O)c5cc4F)N3c3cc(F)c(N4CCC(c5ccc(F)cc5)CC4)c(F)c3)c(F)cc2n1COP(=O)(O)O)[C@@H](C)OC")
40
>>> numeric_readout("COC(=O)N[C@H](C(=O)N1CCC[C@H]1c1nc2cc(F)c([C@H]3CC[C@H](c4cc5c(cc4F)nc([C@@H]4CCCN4C(=O)[C@@H](NC(=O)OC)[C@@H](C)OC)n5COP(=O)(O)O)N3c3cc(F)c(N4CCC(c5ccc(F)cc5)CC4)c(F)c3)cc2n1COP(=O)(O)O)[C@@H](C)OC")
66

Noted for "COC(=O)N[C@H](C(=O)N1CCC[C@H]1c1nc2cc(F)c([C@H]3CC[C@H](c4cc5nc([C@@H]6CCCN6C(=O)[C@@H](NC(=O)OC)[C@@H](C)OC)n(COC(=O)Cc6ccc(OP(=O)(O)O)cc6)c5cc4F)N3c3cc(F)c(N4CCC(c5ccc(F)cc5)CC4)c(F)c3)cc2[nH]1)[C@@H](C)OC" : its Cmax reads 155

Measured Cmax of "COC(=O)N[C@H](C(=O)N1CCC[C@H]1c1nc2cc(F)c([C@H]3CC[C@H](c4cc5nc([C@@H]6CCCN6C(=O)[C@@H](NC(=O)OC)[C@@H](C)OC)n(COC(=O)[C@@H](NC(=O)COP(=O)(O)O)C(C)C)c5cc4F)N3c3cc(F)c(N4CCC(c5ccc(F)cc5)CC4)c(F)c3)cc2[nH]1)[C@@H](C)OC" : 112

Cmax reported for this compound "COC(=O)N[C@H](C(=O)N1CCC[C@H]1c1nc2cc(F)c([C@H]3CC[C@H](c4cc5nc([C@@H]6CCCN6C(=O)[C@@H](NC(=O)OC)[C@@H](C)OC)n(COC(=O)CC(C)(C)c6c(C)cc(C)cc6OP(=O)(O)O)c5cc4F)N3c3cc(F)c(N4CCC(c5ccc(F)cc5)CC4)c(F)c3)cc2[nH]1)[C@@H](C)OC" : 249

Notebook: "COC(=O)N[C@H](C(=O)N1CCC[C@H]1c1nc2cc([C@H]3CC[C@H](c4cc5c(cc4F)nc([C@@H]4CCCN4C(=O)[C@@H](NC(=O)OC)[C@@H](C)OC)n5COP(=O)(O)O)N3c3cc(F)c(N4CCC(c5ccc(F)cc5)CC4)c(F)c3)c(F)cc2n1COP(=O)(O)O)[C@@H](C)OC" , Cmax read as 275

For record "COC(=O)N[C@H](C(=O)N1CCC[C@H]1c1nc2cc(F)c([C@H]3CC[C@H](c4cc5nc([C@@H]6CCCN6C(=O)[C@@H](NC(=O)OC)[C@@H](C)OC)n(COC(=O)Cc6ccccc6OP(=O)(O)O)c5cc4F)N3c3cc(F)c(N4CCC(c5ccc(F)cc5)CC4)c(F)c3)cc2[nH]1)[C@@H](C)OC" the listed Cmax is 288

Cmax measured on "COC(=O)N[C@H](C(=O)N1CCC[C@H]1c1nc2cc(F)c([C@H]3CC[C@H](c4cc5c(cc4F)nc([C@@H]4CCCN4C(=O)[C@@H](NC(=O)OC)[C@@H](C)OC)n5COP(=O)(O)O)N3c3cc(F)c(N4CCC(c5ccc(F)cc5)CC4)c(F)c3)cc2[nH]1)[C@@H](C)OC" = 152

The compound listed as "COC(=O)N[C@H](C(=O)N1CCC[C@H]1c1nc2cc(F)c([C@H]3CC[C@H](c4cc5nc([C@@H]6CCCN6C(=O)[C@@H](NC(=O)OC)[C@@H](C)OC)n(COC(=O)CCCOP(=O)(O)O)c5cc4F)N3c3cc(F)c(N4CCC(c5ccc(F)cc5)CC4)c(F)c3)cc2[nH]1)[C@@H](C)OC" shows Cmax equal to 462

###

- Method notes: Cmax in CD1 mouse assessed as pibrentasvir1 level at 6 mg/kg, po measured up to 24 hrs
- Format: ADME, organism-based
- Parameters: route oral, dose 6 mg/kg, time <=24
- Condition context: in vivo
Metric: Cmax

>>> result("COC(=O)N[C@H](C(=O)N1CCC[C@H]1c1nc2cc([C@H]3CC[C@H](c4cc5nc([C@@H]6CCCN6C(=O)[C@@H](NC(=O)OC)[C@@H](C)OC)[nH]c5cc4F)N3c3cc(F)c(N4CCC(c5ccc(F)cc5)CC4)c(F)c3)c(F)cc2[nH]1)[C@@H](C)OC")
"408 ng/mL"

What the record says about "COC(=O)N[C@H](C(=O)N1CCC[C@H]1c1nc2cc(F)c([C@H]3CC[C@H](c4cc5nc([C@@H]6CCCN6C(=O)[C@@H](NC(=O)OC)[C@@H](C)OC)n(COC(=O)N(C)c6ncccc6COP(=O)(O)O)c5cc4F)N3c3cc(F)c(N4CCC(c5ccc(F)cc5)CC4)c(F)c3)cc2[nH]1)[C@@H](C)OC" : Cmax is 380 ng/mL

###

- Method notes: AUC in CD1 mouse assessed as pibrentasvir1 level at 6 mg/kg, po measured up to 24 hrs
- Format: ADME, organism-based
- Design: route oral, dose 6 mg/kg, time <=24
- Condition context: in vivo
Metric: AUC

Some entries whose results are on file:
>>> result("COC(=O)N[C@H](C(=O)N1CCC[C@H]1c1nc2cc(F)c([C@H]3CC[C@H](c4cc5nc([C@@H]6CCCN6C(=O)[C@@H](NC(=O)OC)[C@@H](C)OC)n(C(=O)OCCCOP(=O)(O)O)c5cc4F)N3c3cc(F)c(N4CCC(c5ccc(F)cc5)CC4)c(F)c3)cc2[nH]1)[C@@H](C)OC")
"456 ng·h/mL"
>>> result("COC(=O)N[C@H](C(=O)N1CCC[C@H]1c1nc2cc(F)c([C@H]3CC[C@H](c4cc5nc([C@@H]6CCCN6C(=O)[C@@H](NC(=O)OC)[C@@H](C)OC)n(COC(=O)c6cccc(OP(=O)(O)O)c6)c5cc4F)N3c3cc(F)c(N4CCC(c5ccc(F)cc5)CC4)c(F)c3)cc2[nH]1)[C@@H](C)OC")
"1510 ng·h/mL"

# compound "COC(=O)N[C@H](C(=O)N1CCC[C@H]1c1nc2cc(F)c([C@H]3CC[C@H](c4cc5nc([C@@H]6CCCN6C(=O)[C@@H](NC(=O)OC)[C@@H](C)OC)n(COC(=O)c6ccccc6COP(=O)(O)O)c5cc4F)N3c3cc(F)c(N4CCC(c5ccc(F)cc5)CC4)c(F)c3)cc2[nH]1)[C@@H](C)OC" ; its AUC = 10700 ng·h/mL
